# Target System: KOR (Cavia porcellus, UniProt P41144)
pKi: −log10 of the molar value.
// criterion not met strictly below 7 in pKi; criterion met otherwise

In: Is reported pKi greater than or equal to 7 here: CO[C@@]12CC[C@H](N[C@@H](C(=O)O)C(C)C)[C@@H]3Oc4c(O)ccc5c4[C@@]31CCN(C)[C@@H]2C5 [Compound 16a]
Out: criterion not met

In: Is reported pKi greater than or equal to 7 here: CO[C@@]12CC[C@H](NCCCC(=O)O)[C@@H]3Oc4c(O)ccc5c4[C@@]31CCN(C)[C@@H]2C5 [Compound 21a]
Out: criterion met

###

I'd be grateful if you could share measured pKi for these entries.
# Target System: DOR (Homo sapiens, UniProt P41143)
# Construct: host or cells: CHO (CHO-hDOR)
# Method Summary: competition radioligand binding, CHO cell membranes expressing human DOR, [3H]diprenorphine
Remember, pKi is on a log scale: it is -log10 of the molar concentration.

In: DOR (Homo sapiens, UniProt P41143) / pKi / CO[C@@]12CC[C@@H](NC(C)C(=O)O)[C@@H]3Oc4c(O)ccc5c4[C@@]31CCN(C)[C@@H]2C5 (stereo in doubt) [Compound 15b] : value?
Out: 7.94

In: DOR (Homo sapiens, UniProt P41143) / pKi / CO[C@@]12CCC(N[C@@H](CCC(=O)O)C(=O)O)[C@@H]3Oc4c(O)ccc5c4[C@@]31CCN(C)[C@@H]2C5 (stereo in doubt) [Compound 14a] : value?
Out: 7.62

In: DOR (Homo sapiens, UniProt P41143) / pKi / CC[C@H](N[C@@H]1CC[C@@]2(OC)[C@H]3Cc4ccc(O)c5c4[C@@]2(CCN3C)[C@H]1O5)C(=O)O [Compound 19b] : value?
Out: 8.70

In: DOR (Homo sapiens, UniProt P41143) / pKi / CC[C@H](N[C@H]1CC[C@@]2(OC)[C@H]3Cc4ccc(O)c5c4[C@@]2(CCN3C)[C@H]1O5)C(=O)O [Compound 19a] : value?
Out: 7.42

In: DOR (Homo sapiens, UniProt P41143) / pKi / CO[C@@]12CC[C@@H](N[C@@H](CCC(=O)O)C(=O)O)[C@@H]3Oc4c(O)ccc5c4[C@@]31CCN(C)[C@@H]2C5.Cl.Cl [Compound 14b] : value?
Out: 7.74

In: DOR (Homo sapiens, UniProt P41143) / pKi / CO[C@@]12CC[C@@H](N[C@@H](Cc3ccccc3)C(=O)O)[C@@H]3Oc4c(O)ccc5c4[C@@]31CCN(C)[C@@H]2C5 [Compound 4b] : value?
Out: 8.95
